Data origin, for the record: the supplement of paper PMC10307832

- System: LOU-NH91
- assay_overview: relative viability (nuclei count vs DMSO), 5 days (fraction); higher = more cells survive
- condition_info: first compound 0.04 µM
Recorded relative viability values for a group of molecules are listed next.

molecule	relative viability
Clc1ccc(Nc2nnc(Cc3ccncc3)c3ccccc23)cc1 [Vatalanib] + C[C@]1(O)C[C@@H](c2nc(-c3ccc4ccc(-c5ccccc5)nc4c3)c3c(N)nccn32)C1 [Linsitinib] (partner 1 µM)	1.02
COc1cc(N2CCC(C(N)=O)CC2)ccc1Nc1nc(N)c(Cl)c(Nc2ccccc2S(=O)(=O)C(C)C)n1 [HG-5-88-01] + Cc1cc(Nc2cc(N3CCN(C)CC3)nc(Sc3ccc(NC(=O)C4CC4)cc3)n2)n[nH]1 [Tozasertib] (partner 0.1 µM)	0.657
C[C@@H]1CN(CC(=O)Nc2ccc3c(c2)Cc2cccc(-c4cc(=O)cc(N5CCOCC5)o4)c2S3)C[C@H](C)O1 + CC(=O)Nc1cccc(-n2c(=O)n(C3CC3)c(=O)c3c(Nc4ccc(I)cc4F)n(C)c(=O)c(C)c32)c1 [Trametinib] (partner 0.02 µM)	0.812
Clc1ccc(Nc2nnc(Cc3ccncc3)c3ccccc23)cc1 [Vatalanib] + N=C(N)NC(=N)NCCc1ccccc1 [Phenformin] (partner 250 µM)	0.694
